assay: qHTS Assay for Lipid Storage Modulators in Drosophila S3 Cells; settings: BODIPY lipid droplet fluorescence, 18-24 h, cells fed with added oleic acid; measured here: cell count max response;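 as to cell number change: cells counted by Cell Tracker Red CMTPX staining in the red channel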
Hit rate of the full screen: of about 320,000 compounds, about 2,100 (0.66%) were called active. About 53% were inconclusive and are not listed. The entries come from a sample that favours actives as a whole.
observable: cell number change (%)
Numbers only, in %.

compound	observable	result value
CC(C)OCCCNC(=O)C(NC(=O)c1ccc(Cl)cc1)C(C)C (stereo not drawn)	cell number change	4.94
CCOC(=O)c1ccc(-c2ccc(/C=N/NC(=O)Cc3nnc(N)s3)o2)cc1	cell number change	-10.3
COc1ccc(C(=O)c2sc(Nc3ccccc3)c(C(=O)Nc3ccc(OC)c(OC)c3)c2N)cc1	cell number change	-20
CCOC(=O)C(=O)C1=C(N2CCOCC2)/C(=C\c2cccc([N+](=O)[O-])c2)CC1	cell number change	-9.52
CC(C)Nc1ccc(C(CC(N)=O)NC(=O)Cc2cccc3ccccc23)cc1[N+](=O)[O-] (stereo not drawn)	cell number change	1.26

Look up cell number change for the entries below, preserving their order.
1. CC(C)C(NC(=O)C12CC3CC(CC(C3)C1)C2)C(=O)N/N=C/C1=C(N2CCOCC2)C(=C\c2cccc([N+](=O)[O-])c2)/CC1 (stereo not drawn)
2. Cc1cc(C)cc(N(CC(=O)O)S(=O)(=O)c2c(C)noc2C)c1

1: 9.26; 2: 2.34

Look up cell number change for the entries below, preserving their order.
1. CCN(CC)N=Nc1ccc(S(N)(=O)=O)cc1
2. CC(C)(CO)NC12CC3CC(CC(C3)C1)C2
3. COC(=O)c1ccccc1NC(=O)CSc1nc(O)cc(=O)n1C1CCCC1

1. -10.8
2. -20.6
3. 6.94

Look up cell number change for the entries below, preserving their order.
1. Cc1cc(S(=O)(=O)NCc2cccnc2)ccc1-n1cnnn1
2. COc1ccc(CNS(=O)(=O)c2ccc(-n3cnnn3)c(C)c2)cc1
3. Oc1ccc(CNC2CCCCC2)cc1

1. 2.93
2. -1.28
3. 0.0125

Look up cell number change for the entries below, preserving their order.
1. COCc1ccc(C(=O)Nc2ccccc2C(=O)NCc2cccnc2)cc1
2. O=c1[nH]c(CN2CCN(c3ccc(F)cc3)CC2)nc2ccccc12
3. CCOC(=O)c1ccc(N2C(=O)c3n[nH]c(C)c3C2c2ccc(OC)cc2)cc1 (stereo not drawn)
4. O=C(CC1C(=O)NCCN1Cc1c(F)cccc1Cl)NCCCn1ccnc1 (stereo not drawn)
5. CCOC(=O)C1CCN(CC(O)COCc2ccccc2)CC1 (stereo not drawn)
6. CCOc1ccc(S(=O)(=O)N2CCC(C(=O)NCC3CCCO3)CC2)cc1Cl (stereo not drawn)
7. Cc1cc(NC(=O)COC(=O)c2ccccc2[N+](=O)[O-])no1

10.3
-21.1
-20.7
8.35
4.71
20.5
-0.913

Look up cell number change for the entries below, preserving their order.
1. CC(C)[C@H](NC(=O)C1(c2ccccc2)CCN(C(=O)OC(C)(C)C)CC1)C(=O)O
2. CCc1c(C)sc(NC(=O)c2cc(C(C)C)on2)c1C#N
3. O=CC1=C(N2CCOCC2)/C(=C\c2ccccc2)CC1
4. Cn1c(COc2ccc(Cl)cc2)nnc1SCC(=O)NC1CCCC1

0.279
4.86
1.5
17.9

Look up cell number change for the entries below, preserving their order.
1. COc1ccccc1NC(=O)c1sc(Cl)nc1C
2. CCn1c(SCC(=O)NC2CCCC2)nnc1-c1c[nH]c2ccccc12
3. N#C/C(=C\C1=C(N2CCOCC2)C(=C/c2cccc([N+](=O)[O-])c2)/CC1)C(=O)Nc1ccccc1F
4. COCCNC(=O)C(C)Oc1ccccc1 (stereo not drawn)
5. COc1ccc(S(=O)(=O)Nc2cccc(-n3cnnn3)c2)cc1
6. Clc1ccc(CNC2CCCC2)c(Cl)c1

1: 1.65; 2: 30; 3: 1.41; 4: 20.2; 5: -4.25; 6: -13.9

Look up cell number change for the entries below, preserving their order.
1. CC(NC(=O)C12CC3CC(CC(C3)C1)C2)C(=O)N/N=C/C1=C(N2CCOCC2)C(=C\c2cccc([N+](=O)[O-])c2)/CC1 (stereo not drawn)
2. Cc1ccc(C)c(/C=C2\CCn3c2nc2cc(C(=O)O)ccc2c3=O)c1
3. O=C(O)c1ccc(-c2nnc(-c3cccc(Br)c3)o2)cc1

[4.98, 6.53, 12.2]

Look up cell number change for the entries below, preserving their order.
1. COc1ccccc1NC(=O)C1=C(C)Nc2nc(CCCO)nn2C1c1ccc2c(c1)OCO2 (stereo not drawn)
2. C=CCOc1ccc(C(=O)Nc2ccccc2C(=O)NCc2cccnc2)cc1
3. CCCCn1c(N)c(N(CC(C)C)C(=O)c2cnccn2)c(=O)[nH]c1=O
4. N#C/C(=C/c1cccc([N+](=O)[O-])c1)C(=O)Nc1ccccc1O
5. COc1ccc(NS(=O)(=O)c2ccc(NC(C)=O)cc2)c(OC)c1
6. Cc1ccc(OCc2nnc(SCC(=O)NC3CCCCC3)n2C)cc1

1: -2.99; 2: 18.4; 3: -16.5; 4: 0.725; 5: 0.633; 6: 20.5

###

experiment: qHTS Assay for Lipid Storage Modulators in Drosophila S3 Cells; conditions: BODIPY lipid droplet fluorescence, 18-24 h, cells fed with added oleic acid; series mostly up to 46.1 µM
In all, about 320,000 compounds went through this assay and about 2,100 (0.66%) were called active. Roughly 53% stayed inconclusive and do not appear here. Calls follow the shape of the dose curve; as a rule, active = well fitted inhibition curve with a large enough effect in the signal ratio, with a control signal flat (not every such curve was filed as active); inconclusive = small, poorly fitted or top-dose-only effect, or effect the other way, or a change in a side signal; inactive = flat fitted curve, though single readings scatter; the % refers to the signal ratio. The entries come from a sample that favours actives as a whole.
// one of active, inactive, no free text

Past entries and their recorded results:
molecule	classification
COC(=O)c1cc(C)sc1NC(=O)CC1Nc2ccccc2NC1=O (stereo not given)	active
CCCCNC(=O)CC1Nc2ccccc2NC1=O (stereo not given)	inactive
CC(=O)Nc1ccc(NC(=O)CNC(=O)c2sc3ccccc3c2Cl)cc1	inactive
CCOc1cc(C2C(C(=O)c3ccc(C)o3)=C(O)C(=O)N2CCc2ccccc2)ccc1O (stereo not given)	inactive

Given COc1ccc(CCNC(=O)COC(=O)c2cnc(C)cn2)cc1OC , state the outcome it received in this test. inactive

Now consider COC(=O)c1ccc(CNC(=O)CNC(=O)c2sc3ccccc3c2Cl)cc1 and answer again. inactive

Now consider CCOC(=O)C1CCCN(C(=O)c2ccc3nc(-c4cccc(OC)c4)oc3c2)C1 (stereo not given) and answer again. inactive

Now consider O=C(CCCc1ccccc1)NCCc1ccccc1 and answer again. inactive

Now consider Cc1ccccc1CNC(=O)CCC(=O)N1CCOc2ccc(Cl)cc21 and answer again. inactive

Now consider Cc1ccc(C=Nc2ccccc2C(N)=O)o1 and answer again. inactive

Now consider CC1Cc2ccccc2N1C(=O)CSc1nnc(Cn2nnc3ccccc32)n1C (stereo not given) and answer again. inactive

Now consider COC(=O)c1c(NC(=O)CC2Nc3ccccc3NC2=O)sc(C)c1C (stereo not given) and answer again. inactive

Now consider CCn1c(O)c(C(C#N)=C2N=c3ccccc3=N2)c2ccccc21 and answer again. inactive

Now consider CCC(=O)N(c1ccc(C(=O)O)cc1)c1nc(-c2ccc(OC)cc2)c(C)s1 and answer again. inactive

Now consider CC(C)CC(=O)NC1(C(F)(F)F)C(=O)Nc2c1c(=O)n(C)c(=O)n2C (stereo not given) and answer again. active

Now consider CC1CN(C(=O)Cn2c(=O)oc3ccccc32)CC(C)O1 (stereo not given) and answer again. inactive

Now consider CC1CN(C(=O)CN2C(=O)c3ccccc3C2=O)CC(C)O1 (stereo not given) and answer again. active

###

experiment: qHTS Assay for Lipid Storage Modulators in Drosophila S3 Cells; conditions: BODIPY lipid droplet fluorescence, 18-24 h, cells fed with added oleic acid; measured here: cell count max response;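 as to cell number change: cells counted by Cell Tracker Red CMTPX staining in the red channel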
Among all 320,000 compounds or so, about 2,100 (0.66%) were called active. Another 53% or so got no clear call; they are omitted. This excerpt belongs to a sample that is enriched for actives.
Answer each item with its documented cell number change.
Numbers only, in %.

Look up cell number change for the entries below, preserving their order.
1. CC(C)n1c(SCC(=O)N2CCCCC2)nc2c1c(=O)n(C)c(=O)n2C
2. CC(C(=O)Nc1ccc2nccnc2c1)N1C(=O)C2C3C=CC(C3)C2C1=O (stereo unspecified)
3. CCOC(=O)N1CCN(C(=O)CSCC(=O)Nc2nc(-c3ccccc3)cs2)CC1

1. -23
2. 0.122
3. -8.7

Look up cell number change for the entries below, preserving their order.
1. CCOC(=O)c1ccc(-c2csc(NC(=O)CN3CCC(C)CC3)n2)cc1
2. CC(C)n1c(SCC(=O)N2CCN(C)CC2)nc2c1c(=O)n(C)c(=O)n2C
3. Cc1c(Br)cc(C(=O)O)c(C)c1C
4. Cn1c(=O)c2c(nc(SCC(=O)N3CCCCCC3)n2C)n(C)c1=O
5. Cc1ccc(-c2csc(NC(=O)CN3CCC(C(N)=O)CC3)n2)cc1
6. COCC(=O)Nc1nc(-c2ccc(-c3ccccc3)cc2)cs1
7. O=C(N/N=C/c1c[nH]c2ccccc12)c1ccn(Cc2ccc(Cl)cc2Cl)n1

1. 3.78
2. 1.32
3. -29.4
4. 8.11
5. -18.5
6. 7.77
7. -11.1

Return reported cell number change; argument: CCOc1ccc(C(C)=O)cc1CSC(=N)N 0.606
